System: Hepatitis C virus
METHOD NOTES: microbe, parasite or virus in culture
CONDITION CONTEXT: genotype 1b, Huh-7, 72 h
READOUT TYPE: EC50 (nM)

| MOLECULE | EC50, nM |
| --- | --- |
| C=CCNS(=O)(=O)c1cc(-c2c(C)nc3c(NCc4ccnc(CC)c4)cc(Cl)nn23)ccc1OC | 667 |
| CCc1cc(CNc2cc(Cl)nn3c(-c4cccc(S(=O)(=O)N(C)C)c4)c(C)nc23)ccn1 | 393 |
| CCc1cc(CNc2cc(Cl)nn3c(-c4ccc(OC)c(S(=O)(=O)N5CCC(O)CC5)c4)c(C)nc23)ccn1 | 20 |
| CCc1cc(CNc2cc(Cl)nn3c(-c4ccc(OC)c(S(=O)(=O)NCCN(C)C)c4)c(C)nc23)ccn1 | 350 |
| CCc1cc(CNc2cc(Cl)nn3c(-c4ccc(OC)c(S(=O)(=O)N5CCOCC5)c4)c(C)nc23)ccn1 | 1020 |
| C=CCNS(=O)(=O)c1cc(-c2c(C)nc3c(NCCNC(C)=O)cc(Cl)nn23)ccc1OC | 2680 |

1 = CCc1cc(CNc2cc(Cl)nn3c(-c4ccc(OC)c(S(=O)(=O)NC5CCC(N)CC5)c4)c(C)nc23)ccn1 (stereo not drawn)
2 = CCc1cc(CNc2cc(Cl)nn3c(-c4ccc(OC)c(S(=O)(=O)NCCO)c4)c(C)nc23)ccn1
Which has the smaller recorded EC50, 1 or 2 ? // respond with label for picked entry
2
